Cited source: patent US20180037654A1

Parameter pEC50: see the listing below.
- measured-on: human CTLA-4 (Y166G and Y183G) expressed on CHO-K1.hCTLA-4 cells (human, UniProt P16410 36-223)
- Sequence (P16410 36-223 Y201G/Y218G limits assumed): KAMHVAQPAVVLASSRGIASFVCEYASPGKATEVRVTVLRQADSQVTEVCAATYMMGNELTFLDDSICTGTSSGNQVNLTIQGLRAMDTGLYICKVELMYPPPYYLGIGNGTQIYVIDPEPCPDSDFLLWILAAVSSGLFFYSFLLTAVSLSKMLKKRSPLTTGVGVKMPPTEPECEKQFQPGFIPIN
- assay-details: CELISA on CHO-K1.hCTLA-4 cells
pEC50: −log10 of the molar value.

binder	pEC50
hCTLA4.27H6L3 (antibody, human IgG4 S228P, kappa, V domains shown, Humanized, human IgG4 (S228P) kappa; H6 read as hCTLA4.27VH6, L3 as hCTLA4.27VL3) VH: EVQLLESGPELVRPGSSVKISCKASGYSFTTYWMNWVKQRPGKGLEWIGMIHPSDSETSLNQAFKDKVKLTAATSASIAYLEFSSLRNEDSAVYYCARMGRRNPYYFDYWGQGTLVTVSS VL: DIQMTQSPSSLSASVGDTVTITCRPSENLYTNLAWYQQKPGKAPKLLLYGATNLADGVPSRFSGSGSGTDYTLTISSLQSEDFATYYCQHLWGTPFTFGQGTKLEIKR	10.55
hCTLA4.27H5L1 (antibody, human IgG4 S228P, kappa, V domains shown, Humanized, human IgG4 (S228P) kappa; H5 read as hCTLA4.27VH5, L1 as hCTLA4.27VL1) VH: EVQLLQAGAVLARPGTSVKISCKASGYSFTTYWMNWVKQRPGKGLEWIGMIHPSDSETSLNQAFKDKAKLTAATSASIAYLEFSSLTNEDSAVYYCARIGRRNPYYFDYWGQGTLVTVSS VL: DIQMTQSPSSLSASVGDRVTITCRPSENLYTNLAWYQQKPGKAPKLLLYGATNLADGVPSRFSGSGSGTDYTLTISSLQPEDFATYYCQHLWGTPFTFGQGTKLEIKR	10.54
